Values were extracted from paper PMC9352680.

pKd reference
Assay Target: T1, PUF4 RNA-binding domain (Saccharomyces cerevisiae, UniProt P25339 537-888)
T1 sequence: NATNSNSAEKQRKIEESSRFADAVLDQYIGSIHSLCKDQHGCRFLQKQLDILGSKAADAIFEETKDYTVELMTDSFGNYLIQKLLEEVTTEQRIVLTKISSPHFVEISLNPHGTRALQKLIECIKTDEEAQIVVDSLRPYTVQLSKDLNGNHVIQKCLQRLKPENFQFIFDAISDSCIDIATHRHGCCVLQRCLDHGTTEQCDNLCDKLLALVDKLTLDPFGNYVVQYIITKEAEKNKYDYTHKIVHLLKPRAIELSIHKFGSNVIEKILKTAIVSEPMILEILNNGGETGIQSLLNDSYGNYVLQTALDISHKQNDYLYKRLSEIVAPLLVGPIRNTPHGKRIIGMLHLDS
Procedure Summary: Mg; RNA-MaP; 20 mM Na-HEPES pH 7.4, 30 mM KOAc, 0.75 mM MgCl2, 0.1% Tween-20, 5% glycerol, 0.1 mg/mL BSA, 2 mM DTT; 25 C; 0.0125-409.6 nM protein
Settings: tags: N-His6-TEV cleaved; C-SNAP kept, Cy3B-labelled; label: tethered on chip by stalled RNA polymerase
Scale: negative log10 of molar concentration, which is what pKd denotes.

[
  {
    "Binder": "Id_ii_S2_P3E.3_K3.2_C3.2_[C-2T]_[T-1C]_H3.2_A3.1_F3.1_T3.2_[A10T] (ssRNA) RNA: UUUGAUUAAUAUGAUAUCGUUCUUUCUUCUAUAUAUAUUUUCUUUCUCGAUAUCAUAUUAAUCUUU",
    "Readout Name": "pKd",
    "Value": 7.17
  },
  {
    "Binder": "Ic_S4_P5E.1_K5.1_C5.1_H5.1_A5.1_[T5C]_[T6C]_[A7C]_F5.1_[T8G]_[T9C]_[A10G]_T5.1 (ssRNA) RNA: UUUGACAACUGAUCGUUCUUUCUUGUACCCGCGUUCUUUCUCGAUCAGUUGUCUUU",
    "Readout Name": "pKd",
    "Value": 5.78
  },
  {
    "Binder": "Ic_S2_P3E.1_K3.1_C3.1_H3.1_A3.1_[A6C]_F3.1_[T7C]_[A8T]_T3.1 (ssRNA) RNA: UUUGAUUAAUAUGAUAUCGUUCUUUCUUGUAUCCUUUCUUUCUCGAUAUCAUAUUAAUCUUU",
    "Readout Name": "pKd",
    "Value": 7.86
  },
  {
    "Binder": "UCUCUUUGUAUGCCAUCUCUU (ssRNA) [Ic_S1_P4E.1_K4.1_C4.1_H4.1_A4.1_[A6G]_[T7C]_F4.1_[T8C]_T4.1]",
    "Readout Name": "pKd",
    "Value": 6.33
  },
  {
    "Binder": "Ic_S2_P3E.1_K3.1_C3.1_H3.1_A3.1_[A6C]_F3.1_[T7C]_T3.1 (ssRNA) RNA: UUUGAUUAAUAUGAUAUCGUUCUUUCUUGUAUCCAUUCUUUCUCGAUAUCAUAUUAAUCUUU",
    "Readout Name": "pKd",
    "Value": 6.83
  }
]

Prompt line: # query: pKd of entry UCUCUUGUUAUAUAUACCUCUCUU (ssRNA) [Id_ii_S1_P3E.3_K3.2_C3.2_[C-2G]_H3.2_A3.1_F3.1_T3.2_[T9C]_[A10C]]
Response line: 7.44

Prompt line: # query: pKd of entry Ic_S4_P4E.1_K4.1_C4.1_H4.1_A4.1_[A6G]_[T7C]_F4.1_[T8C]_T4.1 (ssRNA) RNA: UUUGACAACUGAUCGUUCUUUCUUGUAUGCCAUUCUUUCUCGAUCAGUUGUCUUU
Response line: 7.55

Prompt line: # query: pKd of entry Id_ii_S2_P5E.3_K5.2_C5.2_[C-2T]_[T-1C]_H5.2_A5.1_F5.1_T5.2_[T11C] (ssRNA) RNA: UUUGAUUAAUAUGAUAUCGUUCUUUCUUCUAUAUUAUUACAUUCUUUCUCGAUAUCAUAUUAAUCUUU
Response line: 6.75

Prompt line: # query: pKd of entry Ia_S2_P4E.1_K4.1_C4.1_H4.1_A4.1_F4.1_[T8C]_T4.1 (ssRNA) RNA: UUUGAUUAAUAUGAUAUCGUUCUUUCUUGUAUAUCAUUCUUUCUCGAUAUCAUAUUAAUCUUU
Response line: 8.10

Prompt line: # query: pKd of entry Id_ii_S2_P5E.4_K5.3_C5.2_[C-2T]_H5.3_A5.1_F5.1_T5.2_[A12T] (ssRNA) RNA: UUUGAUUAAUAUGAUAUCGUUCUUUCUUUACACUUAUUAUUUUCUUUCUCGAUAUCAUAUUAAUCUUU
Response line: 5.70

Prompt line: # query: pKd of entry UCUCUUUGUAUCACCUCUCUU (ssRNA) [Ic_S1_P4E.1_K4.1_C4.1_H4.1_A4.1_[A6C]_[T7A]_F4.1_[T8C]_[A9C]_T4.1]
Response line: 6.36
